// data source = ChEMBL document CHEMBL1123761

# assayedSystem: Dipeptidase 1 (Sus scrofa, UniProt P22412)
# Sequence (P22412 whole entry): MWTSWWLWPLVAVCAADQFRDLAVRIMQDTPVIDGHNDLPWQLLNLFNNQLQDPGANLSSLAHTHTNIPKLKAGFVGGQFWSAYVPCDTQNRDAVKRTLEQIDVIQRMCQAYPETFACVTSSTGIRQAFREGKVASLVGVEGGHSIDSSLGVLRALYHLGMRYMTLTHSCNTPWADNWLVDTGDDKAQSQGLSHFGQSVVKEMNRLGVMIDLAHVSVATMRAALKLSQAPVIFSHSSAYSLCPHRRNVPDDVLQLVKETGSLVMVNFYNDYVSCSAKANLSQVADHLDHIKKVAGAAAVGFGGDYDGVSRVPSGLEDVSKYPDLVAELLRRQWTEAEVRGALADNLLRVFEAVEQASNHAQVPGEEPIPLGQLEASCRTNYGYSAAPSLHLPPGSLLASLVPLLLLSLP
# measurementDescription: Inhibitory activity against beta-lactamase renal dipeptidase
experimentalEndpoint: Ki (nM)

Would you please look over these solved cases?
CC(NCCCCC/C=C(\NC(=O)[C@H]1CC1(C)C)C(=O)O)P(=O)(O)O (stereo not given in full) :: 160
C/C=C(\NC(=O)C1CC1)C(=O)O :: 3000
CCOC(=S)SCCCCC/C=C(\NC(=O)C1CC1(C)C)C(=O)O (stereo not given) :: 44
C/C=C(\NC(=O)CCCNC(=O)CC(C)C)C(=O)O :: 52000
CC(=O)NCCCCC/C=C(\NC(=O)C1CC1(C)C)C(=O)O (stereo not given) :: 230
CC1(C)CC1C(=O)N/C(=C\CCCCCCCBr)C(=O)O (stereo not given) :: 110
CC1(C)C[C@@H]1C(=O)N/C(=C\CCCCSC[C@H](N)C(=O)O)C(=O)O (stereo in doubt; 174) [CILASTATIN] :: 210
CC1(C)CC1C(=O)N/C(=C\CCCCSc1ccccc1C(=O)O)C(=O)O (stereo not given) :: 60

(1) C/C=C(\NC(=O)CC(C)CCCC(C)C)C(=O)O (stereo not given)
(2) CC(NCCCCC/C=C(\NC(=O)C1CC1(C)C)C(=O)O)P(=O)(O)O (stereo not given)
Which entry shows the lesser value of Ki here, 1 or 2 ? To answer, give the label that identifies your chosen option. 2
